Values compiled from the supplement of paper PMC9170038.

test system: K4 kissing-loop RNA reporter; assay: apparent KD of K4 kissing-loop reporter; higher = weaker reporter binding; conditions: Eterna round: R107; input ligand: arginine 13.2 mM;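 further: bound reporter read as fluorescence of individual clusters on recovered sequencing chips by microscopy, with normalized cluster intensities fitted with a binding model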
Output true (1) for apparent KD of K4 kissing-loop reporter not less than 200 nM; output false (0) otherwise.

Determine whether measured apparent KD of K4 kissing-loop reporter meets or exceeds 200 nM for AGCUCACACGGAAGGAGCGGAUAGAACUGACAGUUGGGCUCAAGUGAUGUUUGGGCUUGAAUCCAGGUAGGUCGCCGUGUGAGCU [Arg B SS t12] false (0)

For this sequence, is measured apparent KD of K4 kissing-loop reporter 200 nM or higher? CCAUCGCUAUUCGAUACCAGCUACUUAGUGAUGUUAAGUUAAAAUCAAUUGUAGAUUGAAAGCCCUUGGCAGCGAAUAGUGAUGG [Theophylline B K4 21] false (0)

Determine whether this sequence has apparent KD of K4 kissing-loop reporter no lower than 200 nM: CGCAAAUCGUCGGCCGCCACUGCAUUUGAACGCUAAUUGUCUCUGCGCGGAGUGAUGUUCUGUGCCAGGACCGGGACGGAUUUCG [theeternabot_exclusion_KL_Trp_B_21] true (1)

Hi, just wondering whether UUCUUGAUGGAAACAUCGAGGAUUACUGAUACCAGUAUCGAUAGAUACCCUUGGCAGCAGAAUCAGUGAUCACGAGUGAUGUUCG [Ex Theophylline A K4 10] shows apparent KD of K4 kissing-loop reporter of 200 nM or higher. true (1)

Could you verify whether the entry GAGAUAGAGGCGGCCGCCACUAGUGAUGUUAGUGAUGUUAGAAAGAGAAUAGAACAGGGAUUAGAUAGGACCGGGCCAGAUGGAG [vvhmullin] shows apparent KD of K4 kissing-loop reporter of no less than 200 nM? false (0)

Can "AAAUAGAUCAGUCAUCCAGUGAUGUUGGAAGGAGCGUGCGAAAGCACAGGUAGGUCGCCGAAAUAAAAGUGGCUGAUCAAAAUAA" be said to have apparent KD of K4 kissing-loop reporter at or above 200 nM? true (1)

Kindly determine if apparent KD of K4 kissing-loop reporter recorded for "CGAUGGAUGGCAGGAUAUAGACAUUGAGUGAUGUUCGAUGAUUAUCCAUAUUCCCGUCACCUAUGACUAGAAGGGCCAUCCAUCG" is above or exactly 200 nM. true (1)

In plain terms: is recorded apparent KD of K4 kissing-loop reporter at least 200 nM for AAGAAUAAUCUUGCAGUGAUGUUGCAAGAUACCAGCAUCGAAAGAUGCCCUUGGCAGCUUGAAACUGCAAGAAUCAAGCUGAAUA [Design1] ? false (0)

Does the reported apparent KD of K4 kissing-loop reporter for GUAAGACCGGGACUCCAGUGAUGUUGGAGGCAGGAUAUCCAGUCGAGGAGAAGGGCCAGGGAUAUCGAGCUGCUCGGUUCGUAGU [Rerareatra] fall at or above the 200 nM mark? false (0)

Textbook exercise: given the entry GGAUAGGACAGAGGAUAUGGUAGUGAUGUUACCAAACUGGUUACUCUUGUCAGAAAACUGGCAUUUCCAGAAGGCUGUCCUAUCG [KL-XFMN-B11] , state whether its apparent KD of K4 kissing-loop reporter is greater than or equal to 200 nM. false (0)

Hi team, for AGCGAGUGAUGUUCGCUGAUCAUGUGAAGUUAGGAUAUAUACUUGCAUAGAAGGAACUAUUACAUGACAUUAGAGGCAGUAGUUC [FMN A SS t7b] , is the recorded apparent KD of K4 kissing-loop reporter at or above 200 nM? false (0)
